Origin of the recorded values: patent US10004732B2

# STUDY_TARGET: PI 3-kinase alpha (Homo sapiens)
# Sequence (P42336 whole entry): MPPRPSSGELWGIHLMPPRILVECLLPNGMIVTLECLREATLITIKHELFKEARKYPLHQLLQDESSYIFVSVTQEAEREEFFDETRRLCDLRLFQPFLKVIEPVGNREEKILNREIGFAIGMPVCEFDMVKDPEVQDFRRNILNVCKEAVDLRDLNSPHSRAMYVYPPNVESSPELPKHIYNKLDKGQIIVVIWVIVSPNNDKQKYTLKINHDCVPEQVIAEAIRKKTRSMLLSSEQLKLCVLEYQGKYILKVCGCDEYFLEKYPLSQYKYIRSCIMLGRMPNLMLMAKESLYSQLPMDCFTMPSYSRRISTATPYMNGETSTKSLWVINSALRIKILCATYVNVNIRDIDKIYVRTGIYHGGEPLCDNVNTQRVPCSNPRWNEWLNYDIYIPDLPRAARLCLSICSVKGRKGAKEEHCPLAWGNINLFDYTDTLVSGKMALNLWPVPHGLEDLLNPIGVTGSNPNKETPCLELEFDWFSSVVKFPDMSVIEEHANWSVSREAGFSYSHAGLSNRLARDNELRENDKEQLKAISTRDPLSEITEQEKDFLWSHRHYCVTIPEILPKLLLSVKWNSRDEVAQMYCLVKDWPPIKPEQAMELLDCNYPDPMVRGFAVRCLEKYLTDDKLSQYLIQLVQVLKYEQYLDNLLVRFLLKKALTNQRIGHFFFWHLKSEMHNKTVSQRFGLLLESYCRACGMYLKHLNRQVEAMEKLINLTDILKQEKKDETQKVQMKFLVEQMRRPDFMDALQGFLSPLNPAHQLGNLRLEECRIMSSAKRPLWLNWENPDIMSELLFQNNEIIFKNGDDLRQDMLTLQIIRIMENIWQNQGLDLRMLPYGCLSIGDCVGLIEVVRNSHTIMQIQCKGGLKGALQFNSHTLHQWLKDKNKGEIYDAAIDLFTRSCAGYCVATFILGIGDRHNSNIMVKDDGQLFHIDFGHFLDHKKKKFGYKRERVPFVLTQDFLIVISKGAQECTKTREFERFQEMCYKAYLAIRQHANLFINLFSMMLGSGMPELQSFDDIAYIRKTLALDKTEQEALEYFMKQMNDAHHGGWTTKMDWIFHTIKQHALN
# Sequence (Q63787 whole entry partner): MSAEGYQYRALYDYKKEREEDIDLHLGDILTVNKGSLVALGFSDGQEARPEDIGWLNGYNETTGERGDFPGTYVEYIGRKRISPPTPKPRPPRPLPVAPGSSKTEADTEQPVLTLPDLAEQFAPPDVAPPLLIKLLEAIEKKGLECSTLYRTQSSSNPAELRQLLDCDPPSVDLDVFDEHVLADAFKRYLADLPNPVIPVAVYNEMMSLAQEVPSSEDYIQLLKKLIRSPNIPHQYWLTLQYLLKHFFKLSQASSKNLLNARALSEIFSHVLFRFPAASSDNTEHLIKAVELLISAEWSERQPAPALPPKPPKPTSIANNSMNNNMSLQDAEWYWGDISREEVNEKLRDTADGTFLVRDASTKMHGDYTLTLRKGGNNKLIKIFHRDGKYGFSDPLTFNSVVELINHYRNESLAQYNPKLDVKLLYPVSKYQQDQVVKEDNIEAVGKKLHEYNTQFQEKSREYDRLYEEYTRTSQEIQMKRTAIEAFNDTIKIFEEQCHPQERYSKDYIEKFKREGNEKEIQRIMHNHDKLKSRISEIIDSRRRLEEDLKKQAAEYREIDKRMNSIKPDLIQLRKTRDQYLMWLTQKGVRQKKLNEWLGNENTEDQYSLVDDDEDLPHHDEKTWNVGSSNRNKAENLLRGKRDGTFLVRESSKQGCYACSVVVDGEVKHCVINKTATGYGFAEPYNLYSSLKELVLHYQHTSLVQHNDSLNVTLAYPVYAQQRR
# ASSAY_EXPLANATION: Cellular assay H1, p-Akt (S473) in Rat-1 cells, Surefire format
# Type: cell-based
# TEST_CONTEXT: non-asterisked data: version H1 (Surefire format), Rat-1 cells; read-out: Assay H PI3Kα IC50
Mark Criterion met for IC50 under 2000 nM, Criterion not met if at or over.

Example cases with answers are listed next.
Cc1ccc(S(=O)(=O)NCCC(C)(C)O)cc1-c1cnc(N)c(-c2cnc(C3CC3)s2)n1: Criterion met
Cc1ccc(S(=O)(=O)NC[C@H]2CCOC2)cc1-c1cnc(N)c(-c2cn(C)nc2C)n1: Criterion met
Cc1ccc(S(=O)(=O)NCCC(C)(C)O)cc1-c1cnc(N)c(-c2nc(C3CC3)no2)n1: Criterion not met
CCCn1cc(-c2nc(-c3cc(S(=O)(=O)NCCC(C)(C)O)ccc3C)cnc2N)cn1: Criterion met
Cc1cc(-c2nc(-c3cc(S(=O)(=O)NC[C@H]4CCNC4)ccc3C)cnc2N)ccn1: Criterion not met
Cc1ccc(S(=O)(=O)NCC2(C)CCCO2)cc1-c1cnc(N)c(-c2cn(C)nc2C)n1 (stereo not shown): Criterion met

(Q) Is IC50 of Cc1ccc(S(=O)(=O)NCC(C)(C)O)cc1-c1cnc(N)c(-n2cnc(C3CC3)n2)n1 strictly below 2000 nM?
(A) Criterion not met

(Q) IC50 under 2000 nM? Item: Cc1cc(-c2nc(-c3cc(S(=O)(=O)NCC4CCCOC4)ccc3C)cnc2N)ccn1 (stereo not shown)
(A) Criterion not met

(Q) Strictly below 2000 nM in IC50? Cc1cn(-c2nc(-c3cc(S(=O)(=O)NCCCO)ccc3C)cnc2N)cn1
(A) Criterion not met

(Q) Given the entry CC(C)(O)CCNS(=O)(=O)c1ccc(Cl)c(-c2cnc(N)c(-n3cncn3)n2)c1 , would its reported IC50 be below 2000 nM?
(A) Criterion not met

====

# Tested on: IL-8-induced neutrophil shape change in human whole blood
# ASSAY_EXPLANATION: Whole blood neutrophil shape change assay (L)
# Type: cell-based
# TEST_CONTEXT: Homo sapiens, Neutrophil, IL-8, human whole blood, read-out: Assay L WBSC IC50
Entries and their IC50 values follow.
The number alone won't do; follow it with the unit.

Cc1ccc(S(=O)(=O)NC2CCC(F)(F)CC2)cc1-c1cnc(N)c(-c2cnn(C)c2)n1 [Example 54]: 2010 nM

(Q) Consider the molecule shown here: Cc1cc(-c2nc(-c3cc(S(=O)(=O)NC4CC(F)(F)C4)ccc3C)cnc2N)ccn1 [Example 129.2] What is its recorded IC50?
(A) 2420 nM

(Q) Give the measured IC50 of Cc1ncc(-c2nc(-c3cc(S(=O)(=O)NCC4(O)COC4)ccc3C)cnc2N)s1 [Example 45.11] .
(A) 79 nM

(Q) Which IC50 value belongs to Cc1ccc(S(=O)(=O)NCCC(C)(C)O)cc1-c1cnc(N)c(-c2ccc(C3CC3)s2)n1 [Example 119.46] ?
(A) 9190 nM

====

# STUDY_TARGET: PI 3-kinase gamma (Homo sapiens, UniProt P48736)
# Sequence (P48736 whole entry): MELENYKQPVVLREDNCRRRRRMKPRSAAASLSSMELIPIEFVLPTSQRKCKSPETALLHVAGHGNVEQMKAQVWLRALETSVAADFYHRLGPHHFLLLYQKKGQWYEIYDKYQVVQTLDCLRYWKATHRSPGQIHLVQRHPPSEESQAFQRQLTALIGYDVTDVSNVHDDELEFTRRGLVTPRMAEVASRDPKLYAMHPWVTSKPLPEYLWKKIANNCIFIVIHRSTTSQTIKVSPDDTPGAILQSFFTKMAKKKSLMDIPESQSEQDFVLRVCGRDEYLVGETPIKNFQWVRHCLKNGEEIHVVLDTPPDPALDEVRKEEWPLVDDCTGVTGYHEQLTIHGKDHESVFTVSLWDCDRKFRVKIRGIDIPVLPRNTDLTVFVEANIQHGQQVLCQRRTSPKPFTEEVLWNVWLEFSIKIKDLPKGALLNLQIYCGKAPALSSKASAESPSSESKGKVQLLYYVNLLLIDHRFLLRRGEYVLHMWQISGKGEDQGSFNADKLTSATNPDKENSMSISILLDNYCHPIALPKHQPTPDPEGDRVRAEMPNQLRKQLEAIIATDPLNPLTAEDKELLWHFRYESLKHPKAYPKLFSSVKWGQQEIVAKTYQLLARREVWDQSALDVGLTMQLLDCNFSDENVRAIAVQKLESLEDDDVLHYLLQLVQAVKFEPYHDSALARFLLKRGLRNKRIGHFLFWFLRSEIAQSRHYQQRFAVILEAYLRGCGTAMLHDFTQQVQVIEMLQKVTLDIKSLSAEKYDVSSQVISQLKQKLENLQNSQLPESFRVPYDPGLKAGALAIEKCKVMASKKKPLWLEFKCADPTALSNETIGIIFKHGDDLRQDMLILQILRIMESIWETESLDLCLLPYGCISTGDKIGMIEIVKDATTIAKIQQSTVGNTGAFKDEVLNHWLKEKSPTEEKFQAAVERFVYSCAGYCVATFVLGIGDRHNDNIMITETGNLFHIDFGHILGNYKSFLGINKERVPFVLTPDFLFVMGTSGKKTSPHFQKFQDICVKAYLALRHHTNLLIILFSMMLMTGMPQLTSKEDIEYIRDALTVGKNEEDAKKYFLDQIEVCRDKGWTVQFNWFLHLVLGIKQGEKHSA
# ASSAY_EXPLANATION: Cellular U937 AKT assay K1 (MSD)
# Type: cell-based
# TEST_CONTEXT: U937 cells, K1 format; read-out: Assay K1 PI3Kγ IC50
The following compounds are shown together with reported log10 of IC50 values.
In plain terms, each number is the log10 of measured IC50 in nM.

Solved cases (7 shown):
Cc1cn(-c2nc(-c3cc(S(=O)(=O)NCCCO)ccc3C)cnc2N)cn1: 2.52
CCCc1noc(-c2nc(-c3cc(S(=O)(=O)N[C@H]4CC[C@H](O)CC4)ccc3C)cnc2N)n1: 1.71
Cc1ccc(S(=O)(=O)NCCC(C)(C)O)cc1-c1cnc(N)c(-c2cnn(C)c2)n1: 1.91
CCN1CCC[C@@H]1CNS(=O)(=O)c1ccc(C)c(-c2cnc(N)c(-n3cncn3)n2)c1: 2.56
Cc1ncc(-c2nc(-c3cc(S(=O)(=O)NCC4(O)COC4)ccc3C)cnc2N)s1: 1.08
Cc1ccc(S(=O)(=O)N[C@H]2CC[C@](C)(O)CC2)cc1-c1cnc(N)c(-n2cncn2)n1 [Example 69a]: 2.01
Cc1ccc(S(=O)(=O)NCCC(C)(C)O)cc1-c1cnc(N)c(-c2cccnc2Cl)n1: 2.93

We next turn to a different compound, shown below.
(Q) # get_value(readout='log10 of IC50', item= Cc1ccc(S(=O)(=O)NCCC(F)(F)F)cc1-c1cnc(N)c(-n2cncn2)n1 )
(A) 2.01

====

# STUDY_TARGET: mTOR (Homo sapiens, UniProt P42345)
# ASSAY_EXPLANATION: Lanthascreen kinase binding assay, assay G
# TEST_CONTEXT: read-out: Assay G mTOR IC50
TEST_READOUT: pIC50
API: returns pIC50 as number; meaning -log10 of concentration in mol/L.

Cc1ccc(S(=O)(=O)NC[C@@H]2CCOC2)cc1-c1cnc(N)c(-n2cncn2)n1 [Example 127.26]: 5.23
Cc1ccc(S(=O)(=O)NC[C@H]2CCOC2)cc1-c1cnc(N)c(-n2cncn2)n1 [Example 127.27]: 5.02

(Q) What does the record list as pIC50 for Cc1ccc(S(=O)(=O)NCCC(C)(O)C(F)(F)F)cc1-c1cnc(N)c(-n2cncn2)n1 (stereo not shown) [Example 127.24] ?
(A) 5.33

(Q) May I ask what pIC50 has been recorded for CC(C)(O)CNS(=O)(=O)c1ccc(Cl)c(-c2cnc(N)c(-n3cncn3)n2)c1 [Example 37] ?
(A) 5.23

(Q) Quick one: pIC50 for Cc1ccc(S(=O)(=O)NCC(F)F)cc1-c1cnc(N)c(-n2cncn2)n1 [Example 34] ?
(A) 5.60

(Q) Item Cc1ccc(S(=O)(=O)NCCC(C)(C)O)cc1-c1cnc(N)c(-c2cnc(C3CC3)s2)n1 [Example 107] has what recorded pIC50?
(A) 5.86

(Q) Returns the measured pIC50 for the input compound. Input: Cc1cc(-c2nc(-c3cc(S(=O)(=O)N[C@H]4CC[C@H](O)CC4)ccc3C)cnc2N)ccn1 [Example 135]
(A) 5.36

(Q) # lookup: pIC50 of Cc1ccc(S(=O)(=O)NC2CC3(CC(O)C3)C2)cc1-c1cnc(N)c(-n2cncn2)n1 (stereo not shown) [Example 67]
(A) 5.66

====

The compounds listed here are annotated with their IC50.
# STUDY_TARGET: PI 3-kinase delta (Homo sapiens, UniProt O00329)
# Sequence (O00329 whole entry): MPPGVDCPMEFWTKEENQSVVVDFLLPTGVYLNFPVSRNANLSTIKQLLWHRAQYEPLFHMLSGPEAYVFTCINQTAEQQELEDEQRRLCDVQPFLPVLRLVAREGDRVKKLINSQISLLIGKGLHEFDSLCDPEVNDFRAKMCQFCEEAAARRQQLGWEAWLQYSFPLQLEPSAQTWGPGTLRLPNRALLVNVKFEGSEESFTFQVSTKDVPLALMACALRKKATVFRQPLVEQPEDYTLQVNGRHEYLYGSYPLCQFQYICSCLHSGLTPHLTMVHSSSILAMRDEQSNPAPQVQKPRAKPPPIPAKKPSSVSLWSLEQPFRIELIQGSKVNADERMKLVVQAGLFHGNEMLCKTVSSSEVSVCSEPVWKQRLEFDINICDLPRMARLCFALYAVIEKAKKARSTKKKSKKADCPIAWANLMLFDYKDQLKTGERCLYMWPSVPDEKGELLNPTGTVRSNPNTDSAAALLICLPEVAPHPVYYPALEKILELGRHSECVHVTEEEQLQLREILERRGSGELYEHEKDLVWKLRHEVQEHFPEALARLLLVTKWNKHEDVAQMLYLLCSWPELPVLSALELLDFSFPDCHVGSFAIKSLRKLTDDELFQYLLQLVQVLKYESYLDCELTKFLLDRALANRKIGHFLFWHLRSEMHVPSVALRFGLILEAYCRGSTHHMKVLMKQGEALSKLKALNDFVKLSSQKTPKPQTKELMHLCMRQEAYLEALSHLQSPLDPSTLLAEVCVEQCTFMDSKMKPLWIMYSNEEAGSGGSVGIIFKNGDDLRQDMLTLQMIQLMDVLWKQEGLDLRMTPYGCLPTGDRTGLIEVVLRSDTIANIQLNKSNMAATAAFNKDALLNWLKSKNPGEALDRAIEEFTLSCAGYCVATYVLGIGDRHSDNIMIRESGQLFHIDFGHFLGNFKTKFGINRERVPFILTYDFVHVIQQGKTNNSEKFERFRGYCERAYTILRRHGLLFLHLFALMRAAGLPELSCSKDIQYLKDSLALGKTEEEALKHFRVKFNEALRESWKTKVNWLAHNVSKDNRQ
# Sequence (Q63787 whole entry partner): as the sequence (Q63787 whole entry partner) above
# ASSAY_EXPLANATION: Cellular assay J1, p-Akt (S473) in Rat-1 cells, Surefire format
# Format: cell-based
# TEST_CONTEXT: non-asterisked data: version J1 (Surefire format), Rat-1 cells; read-out: Assay J PI3Kδ IC50
# unit: µM | format: bare number

Cc1ccc(S(=O)(=O)NC2CC2)cc1-c1cnc(N)c(-n2cncn2)n1: 6.51
CCc1noc(-c2nc(-c3cc(S(=O)(=O)N4CCC(CO)CC4)ccc3C)cnc2N)n1: 5.31
COc1ccc(-c2nc(-c3cc(S(=O)(=O)NCCC(C)(C)O)ccc3C)cnc2N)c(C)n1: 4.96
Cc1ncc(-c2nc(-c3cc(S(=O)(=O)NCCCO)c(F)cc3C)cnc2N)s1: 1.08
Cc1ccc(S(=O)(=O)NCC2(C(N)=O)CC2)cc1-c1cnc(N)c(-n2cncn2)n1: 6

(Q) Value wanted: IC50 (PI 3-kinase delta (Homo sapiens, UniProt O00329)) of entry Cc1ccc(S(=O)(=O)NC[C@H]2CCOC2)cc1-c1cnc(N)c(-c2cn(C)nc2C)n1
(A) 0.62

(Q) Please state recorded IC50 (tested on PI 3-kinase delta (Homo sapiens, UniProt O00329)) of Cc1ccc(S(=O)(=O)NC2CCC(F)(F)CC2)cc1-c1cnc(N)c(-c2cnn(C)c2)n1
(A) 2.03

(Q) Lab note: need IC50 for Cc1ccc(S(=O)(=O)N[C@H]2CC[C@H](O)CC2)cc1-c1cnc(N)c(-c2nc(C(C)C)no2)n1 on PI 3-kinase delta (Homo sapiens, UniProt O00329), anyone have it?
(A) 1.01

====

# STUDY_TARGET: mTOR (Homo sapiens)
# ASSAY_EXPLANATION: Lanthascreen kinase binding assay, assay G
# TEST_CONTEXT: read-out: Assay G mTOR IC50
Counter-ions that a name gives are not always drawn.
TEST_READOUT: IC50 (µM)
# unit: µM | format: bare number

Example compounds with recorded IC50:
Cc1cn(-c2nc(-c3cc(S(=O)(=O)N[C@H]4CC[C@H](O)CC4)ccc3C)cnc2N)cn1: 2.38
Cc1ccc(S(=O)(=O)NCCC(C)(C)O)cc1-c1cnc(N)c(-c2cnn(CCC(C)C)c2)n1: 5.87

(Q) Give the measured IC50 of CCN1CCC[C@@H]1CNS(=O)(=O)c1ccc(C)c(-c2cnc(N)c(-c3cn(C)nc3C)n2)c1 [Example 27, hydrochloride] .
(A) 7.4

(Q) Which IC50 value is on record for CCc1noc(-c2nc(-c3cc(S(=O)(=O)N[C@H]4CC[C@H](O)CC4)ccc3C)cnc2N)n1 ?
(A) 8.3

(Q) Reported IC50, compound Cc1cc(-c2nc(-c3cc(S(=O)(=O)NCC4CCCOC4)ccc3C)cnc2N)ccn1 (stereo not shown) : ____
(A) 5.7
